Counter-ions that a name gives are not always drawn.
Observed Fibrin % cell toxicity, system primary rat microglia.

{"columns": ["compound", "Fibrin % cell toxicity"],
 "data": [
  ["CC(=O)[C@@]1(O)CC[C@H]2[C@@H]3C=C(Cl)C4=CC(=O)[C@@H]5C[C@@H]5[C@]4(C)[C@H]3CC[C@@]21C [Cyproterone, reference compound]", "1%"],
  ["NC(CO)(CO)CO [Tris]", "1%"],
  ["COC(C)(C)CCC[C@H](C)C/C=C/C(C)=C/C(=O)OC(C)C [Methoprene (s)]", "1%"],
  ["O=C1Cc2cc(CCN3CCN(c4nsc5ccccc45)CC3)c(Cl)cc2N1 [Ziprasidone Mesylate, Ziprasidone]", "1%"],
  ["[H-].[Li+] [Lithium hydride]", "1%"],
  ["Cc1ccc(-c2nc3ccc(C)cn3c2CC(=O)N(C)C)cc1 [Zolpidem, Zolpidem Tartrate]", "0%"],
  ["C[N+](C)(C)CC(=O)O [Trimethyl Glycine]", "0%"],
  ["CC12CCC(CC1=O)C2(C)C [D-camphor]", "0%"]
]}

---

# System: primary rat microglia
# experiment_notes: Cell toxicity (dead cells, size <150 μm2) in coated fibrin (cFib) assay;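 note: share of dead cells sized under 150 µm2 at 10 µM in fibrin-stimulated microglia HTS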
# condition_description: primary microglia HTS, fibrin stimulation; decreased size (<150 μm^2) as marker of toxicity
Where a name gives a salt, the structure may show the parent alone.
parameter_measured: Fibrin % cell toxicity (%)

{"columns": ["compound", "numeric_readout"],
 "data": [
  ["CC1CCCC(C)N1 (stereo not shown)", 1],
  ["CCC(Cc1c(I)cc(I)c(N)c1I)C(=O)O (stereo not shown) [Iopanic acid, reference compound]", 1],
  ["COc1cccc(OC)c1C(=O)N[C@@H]1C(=O)N2[C@@H]1SC(C)(C)[C@@H]2C(=O)O", 0],
  ["Cc1ncc(COP(=O)([O-])[O-])c(CN(CCN(CC(=O)[O-])Cc2c(COP(=O)([O-])[O-])cnc(C)c2[O-])CC(=O)[O-])c1[O-].[H+].[H+].[H+].[Mn+2].[Na+].[Na+].[Na+] [Mangafodipir Trisodium]", 1],
  ["CCCOc1ccc2[nH]c(NC(=O)OC)nc2c1 [Oxybendazole, reference compound]", 2],
  ["CN1CCN2c3ncccc3Cc3ccccc3C2C1 (stereo not shown) [Mirtazapine, reference compound]", 2],
  ["CCN(CC)CCNC(=O)COc1ccc(OC)cc1 [Mefexamide, Mefexamide Hydrochloride]", 0],
  ["CCCc1nc(C(C)(C)O)c(C(=O)O)n1Cc1ccc(-c2ccccc2-c2nnn[nH]2)cc1", 0],
  ["CN1Cc2c(N)cccc2C(c2ccccc2)C1 (stereo not shown)", 0],
  ["O=C(O)c1ccc[n+]([O-])c1", 1],
  ["COc1ccc2[nH]cc(CCNC(C)=O)c2c1", 1],
  ["CN(C)CCCOc1nn(Cc2ccccc2)c2ccccc12 [Benzydamine hydrochloride, reference compound]", 1],
  ["C#C[C@]1(OC(C)=O)CC[C@H]2[C@@H]3CCC4=CC(=NO)CC[C@@H]4[C@H]3CC[C@@]21CC (mixture of isomers) [Norgestimate]", 0],
  ["COc1ccc2c(c1OC)C(=O)O[C@@H]2[C@H]1c2c(cc3c(c2OC)OCO3)CCN1C [Noscapine Hydrochloride]", 1],
  ["Cc1cccc(C)c1NC(=O)c1ccccc1C(=O)O [Ftaxilide, reference compound]", 2],
  ["CCCCCCCCCCCCCCCCOP(=O)([O-])OCC[N+](C)(C)C", 1]
]}
